# ASSAY TARGET: T1, human C1s (human, UniProt P09871 16-688)
# T1 construct: Analyte in the Biacore assays; also called hC1s; serum-derived human C1s (CompTech)
# T1 sequence: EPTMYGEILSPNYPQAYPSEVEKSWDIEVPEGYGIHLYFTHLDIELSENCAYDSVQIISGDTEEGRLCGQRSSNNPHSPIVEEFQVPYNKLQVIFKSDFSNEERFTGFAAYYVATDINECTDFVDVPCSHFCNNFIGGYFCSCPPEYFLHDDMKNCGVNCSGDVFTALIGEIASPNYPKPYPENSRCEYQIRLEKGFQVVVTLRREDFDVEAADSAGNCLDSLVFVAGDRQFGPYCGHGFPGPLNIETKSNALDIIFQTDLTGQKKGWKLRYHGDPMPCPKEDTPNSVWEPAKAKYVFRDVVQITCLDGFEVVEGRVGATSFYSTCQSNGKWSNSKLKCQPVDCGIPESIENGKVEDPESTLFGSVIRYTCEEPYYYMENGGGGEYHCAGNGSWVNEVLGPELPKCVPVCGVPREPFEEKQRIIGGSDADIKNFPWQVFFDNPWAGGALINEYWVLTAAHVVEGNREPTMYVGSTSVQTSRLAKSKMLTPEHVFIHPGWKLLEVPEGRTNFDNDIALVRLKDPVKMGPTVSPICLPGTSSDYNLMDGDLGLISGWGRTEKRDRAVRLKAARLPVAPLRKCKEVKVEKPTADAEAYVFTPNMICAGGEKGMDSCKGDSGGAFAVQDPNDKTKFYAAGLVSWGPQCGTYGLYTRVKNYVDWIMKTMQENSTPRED
# ASSAY INFO: SPR (Biacore T200, 37C), Ab captured on protein A/G; pH 5.8, 1.2 mM Ca
Examples of binders with documented koff follow.
Express your answer in s⁻¹, writing the number without its unit.

Known results for binders:
binder="C1_IPN92H0288-SG4GK/IPN93L0212-SK1 (antibody, human IgG4 S228P, kappa, name in Kabat numbering, V domains shown, VL substitutions from IPN009VK3, Kabat numbering; also called IPN92H0288/IPN93L0212) VH: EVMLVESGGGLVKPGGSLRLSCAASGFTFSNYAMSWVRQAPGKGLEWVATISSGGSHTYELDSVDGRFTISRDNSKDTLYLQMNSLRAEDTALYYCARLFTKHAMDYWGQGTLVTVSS VL: QIVLTQSPATLSLSPGERATLSCTASSEVSESRLHWYQQKPGKAPKLWIYSTSNLASGVPSRFSGSGSGTDYTLTISSLQPEDFATYYCHQYYRLHPITFGQGTKLEIKR" readout_units=s⁻¹ value=0.0198
binder="C1_IPN92H0231-SG4GK/IPN93L0024-SK1 (antibody, human IgG4 S228P, kappa, name in Kabat numbering, V domains shown, Substitutions from IPN009VH2, Kabat numbering; also called IPN92H0231/IPN93L0024) VH: EVMLVESGGGLVKPGGSLRLSCAASGFTFSNYAMSWVRQAPGKGLEWVATISSGGSHTYYLDSVKGRFTISRDNSKDTLYLQMNSLRAEDTALYYCARLFTKHAMDYWGQGTLVTVSS VL: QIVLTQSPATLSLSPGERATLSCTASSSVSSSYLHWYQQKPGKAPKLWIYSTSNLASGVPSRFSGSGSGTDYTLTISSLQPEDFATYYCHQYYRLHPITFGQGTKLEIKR" readout_units=s⁻¹ value=0.00544
binder="C1_IPN92H0033-SG4GK/IPN93L0090-SK1 (antibody, human IgG4 S228P, kappa, name in Kabat numbering, V domains shown, VL substitutions from IPN009VK3, Kabat numbering; also called IPN92H0033/IPN93L0090) VH: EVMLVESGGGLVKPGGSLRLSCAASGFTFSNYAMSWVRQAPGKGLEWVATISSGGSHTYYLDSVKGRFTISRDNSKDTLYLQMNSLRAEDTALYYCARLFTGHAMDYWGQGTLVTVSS VL: QIVLTQSPATLSLSPGERATLSCTASSSVSSSKLHWYQQKPGKAPKLWIYSTSNLASGVPSRFSGSGSGTDYTLTISSLQPEDFATYYCHQYYRLHPITFGQGTKLEIKR" readout_units=s⁻¹ value=0.0055
binder="C1_IPN92H0080-SG4GK/IPN93L0024-SK1 (antibody, human IgG4 S228P, kappa, name in Kabat numbering, V domains shown, Substitutions from IPN009VH2, Kabat numbering; also called IPN92H0080/IPN93L0024) VH: EVMLVESGGGLVKPGGSLRLSCAASGFTFSNRAMSWVRQAPGKGLEWVATISSGGSHTYYLDSVKGRFTISRDNSKDTLYLQMNSLRAEDTALYYCARLFTGHAMDYWGQGTLVTVSS VL: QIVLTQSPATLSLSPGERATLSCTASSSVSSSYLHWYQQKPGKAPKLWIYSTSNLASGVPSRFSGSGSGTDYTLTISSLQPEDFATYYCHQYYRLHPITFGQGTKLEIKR" readout_units=s⁻¹ value=0.0129
binder="C1_IPN92H0261-SG4GK/IPN93L0091-SK1 (antibody, human IgG4 S228P, kappa, name in Kabat numbering, V domains shown, Substitutions from IPN009VH2 / IPN009VK3, Kabat numbering; also called IPN92H0261/IPN93L0091) VH: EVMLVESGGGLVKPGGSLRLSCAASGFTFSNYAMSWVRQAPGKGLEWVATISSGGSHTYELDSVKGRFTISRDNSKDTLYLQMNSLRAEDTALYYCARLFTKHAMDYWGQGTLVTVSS VL: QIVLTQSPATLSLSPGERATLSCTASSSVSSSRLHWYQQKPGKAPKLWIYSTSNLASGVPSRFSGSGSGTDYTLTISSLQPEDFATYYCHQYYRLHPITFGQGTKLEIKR" readout_units=s⁻¹ value=0.00533

Below: the item to evaluate.
[ask] Would you kindly share the measured koff for C1_IPN92H0232-SG4GK/IPN93L0024-SK1 (antibody, human IgG4 S228P, kappa, name in Kabat numbering, V domains shown, Substitutions from IPN009VH2, Kabat numbering; also called IPN92H0232/IPN93L0024) VH: EVMLVESGGGLVKPGGSLRLSCAASGFTFSNYAMSWVRQAPGKGLEWVATISSGGSHTYYLDSVKGRFTISRDNSKDTLYLQMNSLRAEDTALYYCARLFTRHAMDYWGQGTLVTVSS VL: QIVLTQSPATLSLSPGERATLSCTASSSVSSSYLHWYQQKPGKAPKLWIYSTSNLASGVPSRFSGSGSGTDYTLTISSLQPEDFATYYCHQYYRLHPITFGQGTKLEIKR ?
[reply] 0.00485
